Test system: HCC-2998 colon
assay.method.text: NCI-60 one-dose screen, 48 h
conditions: 10 µM unless noted
The panel holds about 83,000 compounds, 20% with a hit somewhere; the sample as a whole holds those more often. Calls of active or inactive are those of the source. Rule for the calls: active = growth percent below 10; inactive = the rest.
One label from this list, please: true (1) (active), false (0) (inactive)

# count of solved cases: 10
{"molecule": "CCOC(=O)c1c(Nc2ccccc2)nn2c(-c3ccc(OC)cc3)ccnc12", "tested.system": "HCC-2998 colon", "cat": "false (0)"}
{"molecule": "Cn1cc(CNc2nc3ccc(OC/C(=C/F)CN)cc3o2)ccc1=O", "tested.system": "HCC-2998 colon", "cat": "false (0)"}
{"molecule": "CN(C)CCNC(=O)c1ccc(-c2nc3ccc4[nH]ncc4c3c3c2COCC3)cc1", "tested.system": "HCC-2998 colon", "cat": "true (1)"}
{"molecule": "CC1=CC(=O)C2=C(C)CC(OC(=O)CCc3ccccc3)[C@@H]3[C@H](OC(=O)[C@@H]3C)[C@@H]12 (some centres not stated)", "tested.system": "HCC-2998 colon", "cat": "false (0)"}
{"molecule": "COc1cc(OC)cc(C(=O)Nc2cccc(C#Cc3cccc4[nH]nc(N)c34)c2)c1", "tested.system": "HCC-2998 colon", "cat": "false (0)"}
{"molecule": "CN(C)CCN(C)c1ccc2ncc(C#Cc3cncc(C(=O)Nc4ccc(CN5CCN(C)CC5)c(C(F)(F)F)c4)c3)n2n1", "tested.system": "HCC-2998 colon", "cat": "false (0)"}
{"molecule": "O=C1CC(=O)N2CSCN(C(c3ccccc3)c3nc4ncncc4[nH]3)C2=N1 (configuration not stated)", "tested.system": "HCC-2998 colon", "cat": "false (0)"}
{"molecule": "NC(N)=Nc1ccc(Oc2cccc(NC(N)=Nc3ccc(I)cc3F)c2)cn1", "tested.system": "HCC-2998 colon", "cat": "false (0)"}
{"molecule": "COc1ccc(C2CC(c3cccc(Nc4nc(Cl)nc5cc(OC)c(OC)cc45)c3)=Nc3c(N)nc(N)nc3N2)cc1 (configuration not stated)", "tested.system": "HCC-2998 colon", "cat": "false (0)"}
{"molecule": "C=C(C=O)[C@@H]1CC[C@]2(CO)CC[C@]3(C)[C@H](CC[C@@H]4[C@@]5(C)CCCNC(C)(C)[C@@H]5CC[C@]43C)[C@@H]12", "tested.system": "HCC-2998 colon", "cat": "true (1)"}

Just curious, what result did CCOC(=O)C1=NNC(c2ccc(Cl)cc2)C1C(=O)N1C(=S)NC(=O)C1CC(C)C (configuration not stated) get here?
false (0)

Just curious, what result did `CCCCCc1ccc(S(=O)(=O)Nc2cccc(-c3csc(NC(=O)CNCCN(C)C)n3)c2)cc1` get here?
false (0)

====

growth reference
System: EKVX NSCLC
assay.method.text: NCI-60 one-dose screen, 48 h (100 = growth as untreated, 0 = no growth, -100 = all killed)
conditions: 10 µM unless noted
Compounds without any hit were thinned out: in the full panel of roughly 83,000, 20% have a hit.
Report only the number, with the unit % understood.

{"molecule": "COC(=O)C[Se]C(=O)Cc1c(C)n(C(=O)c2ccc(Cl)cc2)c2ccc(OC)cc12", "growth (%)": 15.1}
{"molecule": "Cc1ccc2sc3c(c2c1)OC(N)=C(C#N)C3c1ccc(Cl)cc1 (stereo unspecified)", "growth (%)": 70.9}
{"molecule": "O=C(CN1CCN(c2cc(=O)n(-c3ccccc3)c3ccccc23)CC1)Nc1nc(-c2ccccc2)cs1", "growth (%)": 45.5}
{"molecule": "CCN(CC)c1ccc(NC2=C(Cl)C(=O)c3nc(C)ccc3C2=O)cc1", "growth (%)": -5.94}
{"molecule": "N/C(=N\\C(N)=N\\c1nc2ccccc2s1)c1ccncc1Cl", "growth (%)": 52.7}

Consider the molecule COc1ccc(C2CC(c3ccc(Nc4nc(NCCO)nc(N5CCOCC5)n4)cc3)=Nc3c(N)nc(N)nc3N2)cc1 (stereo unspecified) and give its measured growth.
107

Consider the molecule `Fc1ccc(-c2cc3nc(C(Cl)Cl)nc(-c4ccco4)n3n2)cc1` and give its measured growth.
-8.73

Consider the molecule CC(=O)N(C)C1CCc2c(sc(NC(=O)c3ccc(C(C)(C)C)cc3)c2C(N)=O)C1 (stereo unspecified) and give its measured growth.
75.5

Consider the molecule `O=S(=O)(NCCCNc1nccc(-n2cnc3ccccc32)n1)c1ccc(C(F)(F)F)cc1` and give its measured growth.
75.1

Consider the molecule CC1(C)NCCC[C@]2(C)[C@H]3C/C(=N\O)C4[C@@H]5C[C@@](C)(CO)CC[C@]5(C)CC[C@@]4(C)[C@]3(C)CC[C@@H]12 (stereo partly specified) and give its measured growth.
108

Consider the molecule `NC(N)=Nc1ccc(Oc2cccc(Nc3ccc(Cl)cc3)c2)cn1` and give its measured growth.
16.1

Consider the molecule `CC1(C)CC[C@]23CC[C@]4(C)[C@H](CC[C@@H]5[C@@]6(C)CCCN(CO)C(C)(C)[C@@H]6CC[C@]54C)[C@H]2[C@H]1OC3` and give its measured growth.
90.9

Consider the molecule `CC1(COc2ccc3ncc(C#Cc4cncc(C(=O)Nc5cccc(C(F)(F)F)c5)c4)n3n2)COC1` and give its measured growth.
101

Consider the molecule `COc1cc(-c2nn(C(C)(C)C)cc2-c2ccnc(NCCCNS(=O)(=O)c3ccccc3)n2)ccc1Cl` and give its measured growth.
36.5

Consider the molecule `CNC(=O)c1c(NC(=O)c2cccc(C(F)(F)F)c2F)sc2c1CCC(=O)C2` and give its measured growth.
13.1

Consider the molecule CC1=CC(=O)C2=C(C)CC(OC(=O)CCc3ccccc3)[C@@H]3[C@H](OC(=O)[C@@H]3C)[C@@H]12 (stereo partly specified) and give its measured growth.
102

Consider the molecule `O=S(=O)(NCCNc1nccc(-n2cnc3ccccc32)n1)c1ccc(Br)cc1` and give its measured growth.
83.4

Consider the molecule CCNC(=O)N1CCc2cc(OC)c(OCCc3ccc(OC)nc3)cc2C1c1ccc(C)cc1C (stereo unspecified) and give its measured growth.
39.3

Consider the molecule `COc1cc(/C=C2\C(=O)Nc3cc(Cl)ccc32)ccc1OCc1ccc(F)cc1` and give its measured growth.
76.5
